Entries and their melting point values follow.
endpoint_label: melting point

INSERT INTO assay_data (compound, endpoint_label, reported) VALUES
  ('COc1ccc(Cc2nc3cccc([N+](=O)[O-])c3o2)cc1OC1CCCC1', 'melting point', '95 to 98.5 °C'),
  ('Cc1c(Cc2cccnc2)sc2ccc(C(N)=O)cc12', 'melting point', '194 to 195 °C'),
  ('CC(=O)Nc1ccccc1CS(=O)c1nccn1-c1ccncc1 (stereo not given)', 'melting point', '147 to 149 °C'),
  ('CCn1c(COC(=O)NC(=O)c2cc(Cl)cc(Cl)c2)nc(C(C)C)c1Sc1cc(Cl)cc(Cl)c1', 'melting point', '124 to 125 °C'),
  ('COc1cc(C=CC=NO)ccc1OC(C)=O', 'melting point', '72 to 74 °C');

Attribution: a melting point compilation (Tetko et al.; mined from patent text by program, amines drawn as free bases though some values may be those of a salt)
